// values below are reported koff
- Tgt: human FOLH1 (Homo sapiens (Human), UniProt Q04609)
- Assay Procedure: SPR analysis of binding kinetics to biotinylated FOLH1 (Biacore 8K)
- Test Context: ligand PSMA, dissociation rate

Molecule Smiles: CC(=O)NCCOCCOCCOCCC(=O)NC[C@H]1CC[C@H](C(=O)N[C@@H](Cc2ccc(-c3ccccc3)cc2)C(=O)NCCCC[C@H](NC(=O)N[C@@H](CCC(=O)O)C(=O)O)C(=O)O)CC1
Unit Abbreviation: s⁻¹
koff: 0.00167
//
Molecule Smiles: CC(=O)NCCOCCOCCOCCC(=O)N[C@@H](Cc1cccc(C(=O)O)c1)C(=O)NCCC(=O)N[C@@H](Cc1ccc2ccccc2c1)C(=O)NCCCC[C@H](NC(=O)N[C@@H](CCC(=O)O)C(=O)O)C(=O)O
Unit Abbreviation: s⁻¹
koff: 0.000258
//
Molecule Smiles: CC(=O)NCCOCCOCCOCCC(=O)N[C@@H]1C[C@@H](C(=O)NCC(=O)N[C@@H](Cc2ccc3ccccc3c2)C(=O)NCCCC[C@H](NC(=O)N[C@@H](CCC(=O)O)C(=O)O)C(=O)O)N(C(=O)COc2cc(C#N)cc(C#N)c2)C1
Unit Abbreviation: s⁻¹
koff: 0.000232
//
Molecule Smiles: CC(=O)NCCOCCOCCOCCC(=O)NC[C@H]1CC[C@H](C(=O)N[C@@H](Cc2ccc3ccccc3c2)C(=O)NCCCC[C@H](NC(=O)N[C@@H](CC(=O)O)C(=O)O)C(=O)O)CC1
Unit Abbreviation: s⁻¹
koff: 0.0349

###

- Tgt: Recombinant Human PSMA/FOLH1 Protein (Homo sapiens (Human))
- Sequence (Q04609 whole entry): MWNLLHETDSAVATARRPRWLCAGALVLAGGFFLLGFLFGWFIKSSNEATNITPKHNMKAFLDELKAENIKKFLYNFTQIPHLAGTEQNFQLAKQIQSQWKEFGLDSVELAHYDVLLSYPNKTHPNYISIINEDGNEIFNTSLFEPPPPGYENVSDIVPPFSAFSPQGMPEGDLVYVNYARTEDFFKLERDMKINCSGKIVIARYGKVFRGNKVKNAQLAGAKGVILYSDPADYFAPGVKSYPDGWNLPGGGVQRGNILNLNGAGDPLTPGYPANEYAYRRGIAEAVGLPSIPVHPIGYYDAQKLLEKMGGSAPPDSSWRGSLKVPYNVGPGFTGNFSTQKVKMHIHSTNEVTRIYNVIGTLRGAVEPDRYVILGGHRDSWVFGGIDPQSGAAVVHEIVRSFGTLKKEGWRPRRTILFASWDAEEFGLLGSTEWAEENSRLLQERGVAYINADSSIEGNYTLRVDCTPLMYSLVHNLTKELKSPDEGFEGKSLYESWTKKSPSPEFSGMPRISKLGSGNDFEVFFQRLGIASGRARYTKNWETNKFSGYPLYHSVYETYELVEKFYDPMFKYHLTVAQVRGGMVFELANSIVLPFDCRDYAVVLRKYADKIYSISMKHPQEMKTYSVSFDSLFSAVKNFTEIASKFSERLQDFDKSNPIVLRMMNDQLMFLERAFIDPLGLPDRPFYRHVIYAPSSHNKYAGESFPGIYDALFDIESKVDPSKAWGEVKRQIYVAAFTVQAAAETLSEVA
- Assay Procedure: Inhibition assay (Amplex Red glutamic acid/glutamate oxidase, NAAG substrate)
- Test Context: Target PSMA; average of N replicates; PSMA 5 nM, NAAG 40 μM
Numbered stars: 1 amine (or outer) side, 2 acyl side, 3 side chain; on linkers, the order of the positions; unused ones are H or OH. Square brackets hold non-standard residues; d marks the D form. Side chains are listed from the residue outwards. Peptide text beside a SMILES is read from it. 2Nal = N[C@@H](Cc1ccc2ccccc2c1)C(=O)O; Trx = NC[C@H]1CC[C@H](C(=O)O)CC1; PEG3 = NCCOCCOCCOCCC(=O)O; Dap = NC[C@H](N)C(=O)O; CO = O=C([*:1])[*:2]

Compound: CC(=O)NCCOCCOCCOCCC(=O)NC[C@H]1CC[C@H](C(=O)N[C@@H](Cc2ccc3ccccc3c2)C(=O)NCC(=O)N[C@@H](CNC(=O)N[C@@H](CCC(=O)O)C(=O)O)C(=O)O)CC1 [Compound 32] (Ac-[PEG3][Trx][2Nal]G[Dap]([CO-Glu])-OH)
IC50 [µM]: 434
--
Compound: CC(=O)NCCOCCOCCOCCC(=O)NC[C@H]1CC[C@H](C(=O)N[C@@H](CC(C)C)C(=O)NCCCC[C@H](NC(=O)N[C@@H](CCC(=O)O)C(=O)O)C(=O)O)CC1
IC50 [µM]: 2.39
--
Compound: CC(=O)NCCOCCOCCOCCC(=O)NC[C@H]1CC[C@H](C(=O)N[C@@H](Cc2ccc3ccccc3c2)C(=O)NCCCC[C@H](NC(=O)N[C@@H](Cc2cnc[nH]2)C(=O)O)C(=O)O)CC1 (stereo in doubt)
IC50 [µM]: 576
--
Compound: CC(=O)NCCOCCOCCOCCC(=O)NC[C@H]1CC[C@H](C(=O)N[C@@H](Cc2ccc(O)cc2)C(=O)NCCCC[C@H](NC(=O)N[C@@H](CCC(=O)O)C(=O)O)C(=O)O)CC1
IC50 [µM]: 0.421
